assay.summary: physchem
recorded.conditions: organic solvent or mixture, thermodynamic from solid, Solubility (mg/mL), Solvent: PEG (−400), room temperature
metric.name: solubility at 60 minutes

INSERT INTO results (compound, readout_value) VALUES
  ('CS(=O)(=O)OCCCCOS(C)(=O)=O [Busulfan, 1,4-butanediol dimethanesulfonate]', '200 µg/mL');

====

assay.summary: physchem
recorded.conditions: organic solvent or mixture, thermodynamic from solid, Solubility (mg/mL), Solvent: Ethanol, room temperature
metric.name: solubility at 60 minutes (µg/mL)

INSERT INTO measurements (molecule, readout_value) VALUES
  ('CS(=O)(=O)OCCCCOS(C)(=O)=O [Busulfan, 1,4-butanediol dimethanesulfonate]', 300);

====

assay.summary: Plasma clearance of Itraconazole and Posaconazole after IV injection in mice
Assay type: in vivo, Swiss Webster mice
recorded.conditions: Swiss Webster, mouse, plasma, intravenous, 5 mg/kg, 5 mg/kg IV, mice, 10 min; read-out: plasma concentration, mean
metric.name: concentration at 10 min (ng/mL)

INSERT INTO measurements (compound, units_of_measure, readout_value) VALUES
  ('CCC(C)n1ncn(-c2ccc(N3CCN(c4ccc(OCC5COC(Cn6cncn6)(c6ccc(Cl)cc6Cl)O5)cc4)CC3)cc2)c1=O (stereo not shown) [Itraconazole, itraconazole]', 'ng/mL', 3230);

====

assay.summary: Parenteral busulfan pharmacology in mice
recorded.conditions: Swiss Webster, mouse, plasma, iv, 10 mg/kg
Excerpt: Swiss Webster mice with a body weight of 25-30 g were used for the in vivo pharmacology experiments (Harlan-Sprague-Dawley, Houston, Tex.). The animals were allowed a minimum of 3-4 days after arrival to acclimatize to the new environment and allowed free access to commercial feed and hyperchlorinated, reverse-osmosis purified water prior to and during the experimentation period. The animal-housing facilities meet the requirements of the USDA, NIH, and DHHS. […]
metric.name: half-life

INSERT INTO measurements (compound, readout_value) VALUES
  ('CS(=O)(=O)OCCCCOS(C)(=O)=O [Busulfan, 1,4-butanediol dimethanesulfonate]', '150 to 210 min');

====

assay.summary: physchem
recorded.conditions: aqueous with cosolvent or surfactant or cyclodextrin, thermodynamic from solid, Solubility (mg/mL), Solvent: PEG:water 1:2, room temperature
metric.name: solubility at 60 minutes

INSERT INTO measurements (compound, metric_name, readout_value) VALUES
  ('CS(=O)(=O)OCCCCOS(C)(=O)=O [Busulfan, 1,4-butanediol dimethanesulfonate]', 'solubility at 60 minutes', '190 µg/mL');

====

assay.summary: Plasma clearance of Itraconazole and Posaconazole after IV injection in mice
Format: in vivo, Swiss Webster mice
recorded.conditions: Swiss Webster, mouse, plasma, intravenous, 5 mg/kg, 5 mg/kg IV, mice, 2.0 hours; read-out: plasma concentration, individual
metric.name: concentration at 2 hours

INSERT INTO results (compound_structure_string, readout_value) VALUES
  ('CC[C@@H]([C@H](C)O)n1ncn(-c2ccc(N3CCN(c4ccc(OC[C@@H]5CO[C@@](Cn6cncn6)(c6ccc(F)cc6F)C5)cc4)CC3)cc2)c1=O', '4990 ng/mL');

====

assay.summary: Plasma clearance of Itraconazole and Posaconazole after IV injection in mice
Assay type: in vivo, Swiss Webster mice
recorded.conditions: Swiss Webster, mouse, plasma, intravenous, 5 mg/kg, 5 mg/kg IV, mice, 2.0 hours; read-out: plasma concentration, mean
metric.name: concentration at 2 hours (ng/mL)

INSERT INTO assay_data (molecule, readout_value) VALUES
  ('CC[C@@H]([C@H](C)O)n1ncn(-c2ccc(N3CCN(c4ccc(OC[C@@H]5CO[C@@](Cn6cncn6)(c6ccc(F)cc6F)C5)cc4)CC3)cc2)c1=O [Posaconazole, posaconazole]', 4770);

====

assay.summary: Plasma clearance of Itraconazole and Posaconazole after IV injection in mice
Type: in vivo, Swiss Webster mice
recorded.conditions: Swiss Webster, mouse, plasma, intravenous, 5 mg/kg, 5 mg/kg IV, mice, 30 min; read-out: plasma concentration, mean
metric.name: concentration at 30 min (ng/mL)

INSERT INTO results (molecule, metric_name, readout_value) VALUES
  ('CCC(C)n1ncn(-c2ccc(N3CCN(c4ccc(OCC5COC(Cn6cncn6)(c6ccc(Cl)cc6Cl)O5)cc4)CC3)cc2)c1=O (stereo not shown)', 'concentration at 30 min', 1620);

====

assay.summary: Plasma clearance of Itraconazole and Posaconazole after IV injection in mice
Type: in vivo, Swiss Webster mice
recorded.conditions: Swiss Webster, mouse, plasma, intravenous, 5 mg/kg, 5 mg/kg IV, mice, 120 min; read-out: plasma concentration, mean
metric.name: concentration at 120 min (ng/mL)

INSERT INTO assay_data (molecule, readout_value) VALUES
  ('CCC(C)n1ncn(-c2ccc(N3CCN(c4ccc(OCC5COC(Cn6cncn6)(c6ccc(Cl)cc6Cl)O5)cc4)CC3)cc2)c1=O (stereo not shown)', 710);

====

assay.summary: Plasma clearance of Itraconazole and Posaconazole after IV injection in mice
Type: in vivo, Swiss Webster mice
recorded.conditions: Swiss Webster, mouse, plasma, intravenous, 5 mg/kg, 5 mg/kg IV, mice, 60 min; read-out: plasma concentration, individual
metric.name: concentration at 60 min (ng/mL)

INSERT INTO results (compound, readout_value) VALUES
  ('CCC(C)n1ncn(-c2ccc(N3CCN(c4ccc(OCC5COC(Cn6cncn6)(c6ccc(Cl)cc6Cl)O5)cc4)CC3)cc2)c1=O (stereo not shown)', 770);

====

assay.summary: Plasma clearance of Itraconazole and Posaconazole after IV injection in mice
Type: in vivo, Swiss Webster mice
recorded.conditions: Swiss Webster, mouse, plasma, intravenous, 5 mg/kg, 5 mg/kg IV, mice, 24 hours
metric.name: concentration at 24 hours (ng/mL)

INSERT INTO measurements (compound, units_of_measure, readout_value) VALUES
  ('CC[C@@H]([C@H](C)O)n1ncn(-c2ccc(N3CCN(c4ccc(OC[C@@H]5CO[C@@](Cn6cncn6)(c6ccc(F)cc6F)C5)cc4)CC3)cc2)c1=O [Posaconazole, posaconazole]', 'ng/mL', 350);

====

assay.summary: Plasma clearance of Itraconazole and Posaconazole after IV injection in mice
Format: in vivo, Swiss Webster mice
recorded.conditions: Swiss Webster, mouse, plasma, intravenous, 5 mg/kg, 5 mg/kg IV, mice, 7.0 hours; read-out: plasma concentration, individual
Experimental: To avoid analytical interference from endogenous plasma proteins in the chromatogram when assaying Itra and Posa in plasma samples, an extraction/purification step utilizing precipitation of protein material with acetonitrile was performed. Briefly, plasma proteins were precipitated by adding acetonitrile to a final volume ratio plasma:acetonitrile of 1:2. The mixture was vortexed for 30 seconds and centrifuged for 5 min. at 14,000 rpm in an Eppendorff microcentrifuge. […]
metric.name: concentration at 7 hours (ng/mL)

INSERT INTO assay_data (compound_structure_string, readout_value) VALUES
  ('CC[C@@H]([C@H](C)O)n1ncn(-c2ccc(N3CCN(c4ccc(OC[C@@H]5CO[C@@](Cn6cncn6)(c6ccc(F)cc6F)C5)cc4)CC3)cc2)c1=O', 2610);

====

assay.summary: physchem
recorded.conditions: organic solvent or mixture, thermodynamic from solid
metric.name: solubility at 60 minutes

INSERT INTO results (compound, readout_value) VALUES
  ('CS(=O)(=O)OCCCCOS(C)(=O)=O [Busulfan, 1,4-butanediol dimethanesulfonate]', '~16 mg/mL');
